System: SK-OV-3
Assay name: Growth inhibition of human SK-OV-3 cells assessed as cell growth at 10 uM incubated for 48 hrs by sulforhodamine B assay relative to control
Type: functional
Condition info: read-out: Activity
Consider the following compounds and their measured growth at 10 µM readings.

{"Smiles text": "Cc1cccc(NC(=O)c2sc3nc4c(cc3c2N)C(=O)CCC4)c1", "Target desc": "SK-OV-3", "growth at 10 µM / %": 3}
{"Smiles text": "CCOc1ccc(-c2cc(N)n(S(=O)(=O)c3ccc(OC)cc3)n2)cc1", "Target desc": "SK-OV-3", "growth at 10 µM / %": 114}
{"Smiles text": "CC(=O)c1cccc(NC(=O)c2sc3nc4c(cc3c2N)C(=O)CCC4)c1", "Target desc": "SK-OV-3", "growth at 10 µM / %": 102}
{"Smiles text": "CC(=O)c1ccc2c(N)c(C(=O)Nc3ccccc3)sc2n1", "Target desc": "SK-OV-3", "growth at 10 µM / %": 106}

* * *

Tested on: 786-0
Assay name: Growth inhibition of human 786-0 cells incubated for 48 hrs by sulforhodamine B assay
Format: functional
Readout label: GI50 (µM)

{"Smiles text": "Cc1cc(C)c(NC(=O)c2sc3nc4c(cc3c2N)CN(Cc2ccccc2)CC4)c(C)c1", "Readout label": "GI50", "Result": 3.48}
{"Smiles text": "CN1CCc2nc3sc(C(N)=O)c(N)c3c(-c3cccs3)c2C1", "Readout label": "GI50", "Result": 4.41}
{"Smiles text": "Nc1c(C(=O)Nc2ccccc2)sc2nc3c(cc12)CN(Cc1ccccc1)CC3", "Readout label": "GI50", "Result": 13}

* * *

Test system: SF-539
Assay name: Growth inhibition of human SF-539 cells assessed as cell growth at 10 uM incubated for 48 hrs by sulforhodamine B assay relative to control
Format: functional
Condition info: read-out: Activity
Label condition not met if growth at 10 µM falls below 80%; label condition met in every other case.

{"Smiles text": "CCOc1ccc(-c2cc(N)n(S(=O)(=O)c3ccc(OC)cc3)n2)cc1", "Classification": "condition met"}
{"Smiles text": "COc1ccc(S(=O)(=O)n2ccc(-c3ccc(OC(C)C)cc3)n2)cc1", "Classification": "condition met"}
{"Smiles text": "Cc1ccc(NC(=O)c2sc3nc4c(cc3c2N)C(=O)CCC4)cc1C", "Classification": "condition not met"}
{"Smiles text": "COc1cccc(NC(=O)c2sc3nc4c(cc3c2N)CN(Cc2ccccc2)CC4)c1", "Classification": "condition not met"}
{"Smiles text": "CN1CCc2nc3sc(C(N)=O)c(N)c3c(-c3cccs3)c2C1", "Classification": "condition not met"}
{"Smiles text": "COc1ccc(S(=O)(=O)n2ccc(-c3ccc4c(c3)CCC(C)(C)O4)n2)cc1", "Classification": "condition met"}

* * *

Tested on: 786-0
Assay name: Growth inhibition of human 786-0 cells assessed as cell growth at 100 uM incubated for 48 hrs by sulforhodamine B assay relative to control
Format: functional
Condition info: read-out: Activity
Recorded growth at 100 µM for the following compounds
Readout label: growth at 100 µM (%)

{"Smiles text": "CCc1ccccc1NC(=O)c1sc2nc3c(cc2c1N)C(=O)CCC3", "Readout label": "growth at 100 µM", "Result": -17}
{"Smiles text": "COc1cccc(NC(=O)c2sc3nc4c(cc3c2N)CN(Cc2ccccc2)CC4)c1", "Readout label": "growth at 100 µM", "Result": -47}
{"Smiles text": "Cc1cccc(NC(=O)c2sc3nc4c(cc3c2N)C(=O)CCC4)c1", "Readout label": "growth at 100 µM", "Result": 2}
{"Smiles text": "Cc1ccc(NC(=O)c2sc3nc4c(cc3c2N)C(=O)CCC4)cc1C", "Readout label": "growth at 100 µM", "Result": 20}

* * *

Test system: Malme-3M
Assay name: Growth inhibition of human Malme-3M cells assessed as cell growth at 10 uM incubated for 48 hrs by sulforhodamine B assay relative to control
Assay type: functional
Condition info: read-out: Activity
Decide using growth at 10 µM alone. Strictly below 80%: criterion met. Equal to or above 80%: criterion not met.

{"Smiles text": "CC(=O)Nc1ccc(S(=O)(=O)n2ccc(-c3ccc4c(c3)CCC(C)(C)O4)n2)cc1", "Classification": "criterion not met"}
{"Smiles text": "CCc1ccccc1NC(=O)c1sc2nc3c(cc2c1N)C(=O)CCC3", "Classification": "criterion met"}
{"Smiles text": "CC1(C)CCc2cc(-c3ccn(S(=O)(=O)c4ccccc4)n3)ccc2O1", "Classification": "criterion not met"}
{"Smiles text": "CC1(C)CCc2cc(-c3ccn(S(=O)(=O)c4ccc(Cl)cc4Cl)n3)ccc2O1", "Classification": "criterion not met"}
{"Smiles text": "O=S(=O)(c1ccccc1)n1ccc(-c2ccc3c(c2)CCO3)n1", "Classification": "criterion not met"}
{"Smiles text": "CCc1cccc(C)c1NC(=O)c1sc2nc3c(cc2c1N)C(=O)CCC3", "Classification": "criterion met"}

* * *

Tested on: M14
Assay name: Growth inhibition of human M14 cells incubated for 48 hrs by sulforhodamine B assay
Format: functional

{"Smiles text": "Nc1c(C(=O)Nc2ccccc2)sc2nc3c(cc12)CN(Cc1ccccc1)CC3", "Target desc": "M14", "TGI": "> 100 µM"}
{"Smiles text": "CCc1ccccc1NC(=O)c1sc2nc3c(cc2c1N)C(=O)CCC3", "Target desc": "M14", "TGI": "> 100 µM"}
{"Smiles text": "Cc1cccc(NC(=O)c2sc3nc4c(cc3c2N)C(=O)CCC4)c1", "Target desc": "M14", "TGI": "≥ 100 µM"}
{"Smiles text": "Cc1ccc(NC(=O)c2sc3nc4c(cc3c2N)C(=O)CCC4)cc1C", "Target desc": "M14", "TGI": "> 100 µM"}

* * *

The reader will find reported growth at 10 µM values listed item by item below.
System: NCI-H522
Assay name: Growth inhibition of human NCI-H522 cells assessed as cell growth at 10 uM incubated for 48 hrs by sulforhodamine B assay relative to control
Assay type: functional
Condition info: read-out: Activity

{"Smiles text": "CCOc1ccc(-c2cc(N)n(S(=O)(=O)c3ccc(OC)cc3)n2)cc1", "Value unit": "%", "growth at 10 µM": 101}
{"Smiles text": "CC(=O)Nc1ccc(S(=O)(=O)n2ccc(-c3ccc4c(c3)CCC(C)(C)O4)n2)cc1", "Value unit": "%", "growth at 10 µM": 54}
{"Smiles text": "Nc1c(C(=O)Nc2ccccc2)sc2nc3c(cc12)CN(Cc1ccccc1)CC3", "Value unit": "%", "growth at 10 µM": 70}
{"Smiles text": "Cc1ccc(S(=O)(=O)n2ccc(-c3ccc(OCCCF)cc3)n2)cc1", "Value unit": "%", "growth at 10 µM": 69.5}
{"Smiles text": "CC(=O)c1cccc(NC(=O)c2sc3nc4c(cc3c2N)C(=O)CCC4)c1", "Value unit": "%", "growth at 10 µM": 87.1}
{"Smiles text": "COc1ccc(S(=O)(=O)n2ccc(-c3ccc4c(c3)CCC(C)(C)O4)n2)cc1OC", "Value unit": "%", "growth at 10 µM": 65.8}
{"Smiles text": "CC1(C)CCc2cc(-c3ccn(S(=O)(=O)c4ccc(Cl)cc4Cl)n3)ccc2O1", "Value unit": "%", "growth at 10 µM": 60.4}
{"Smiles text": "COc1cccc(NC(=O)c2sc3nc4c(cc3c2N)CN(Cc2ccccc2)CC4)c1", "Value unit": "%", "growth at 10 µM": 61}
{"Smiles text": "Cc1ccc(NC(=O)c2sc3nc4c(cc3c2N)C(=O)CCC4)cc1C", "Value unit": "%", "growth at 10 µM": -9.22}
{"Smiles text": "Nc1c(C(=O)N(c2ccccc2)c2ccccc2)sc2nc3c(cc12)C(=O)CCC3", "Value unit": "%", "growth at 10 µM": 103}
{"Smiles text": "O=S(=O)(c1ccccc1)n1ccc(-c2ccc3c(c2)CCO3)n1", "Value unit": "%", "growth at 10 µM": 61.7}
{"Smiles text": "Cc1cccc(NC(=O)c2sc3nc4c(cc3c2N)CN(Cc2ccccc2)CC4)c1", "Value unit": "%", "growth at 10 µM": 114}
{"Smiles text": "CCc1ccccc1NC(=O)c1sc2nc3c(cc2c1N)C(=O)CCC3", "Value unit": "%", "growth at 10 µM": -11.6}

* * *

System: SK-MEL-2
Assay name: Growth inhibition of human SK-MEL-2 cells assessed as cell growth at 10 uM incubated for 48 hrs by sulforhodamine B assay relative to control
Assay type: functional
Condition info: read-out: Activity
growth at 10 µM by entry:

{"Smiles text": "Cc1ccc(S(=O)(=O)n2ccc(-c3ccc(OCCCF)cc3)n2)cc1", "growth at 10 µM, %": 87.2}
{"Smiles text": "CCOc1ccc(-c2cc(N)n(S(=O)(=O)c3ccc(OC)cc3)n2)cc1", "growth at 10 µM, %": 110}
{"Smiles text": "Nc1c(C(=O)N(c2ccccc2)c2ccccc2)sc2nc3c(cc12)C(=O)CCC3", "growth at 10 µM, %": 117}
{"Smiles text": "Cc1ccc(NC(=O)c2sc3nc4c(cc3c2N)C(=O)CCC4)cc1C", "growth at 10 µM, %": 31}
{"Smiles text": "Nc1c(C(=O)Nc2ccccc2)sc2nc3c(cc12)CN(Cc1ccccc1)CC3", "growth at 10 µM, %": 70}
